- Test System: PARP1 WT (UniProt P09874 1-1014)
- Sequence (P09874 whole entry): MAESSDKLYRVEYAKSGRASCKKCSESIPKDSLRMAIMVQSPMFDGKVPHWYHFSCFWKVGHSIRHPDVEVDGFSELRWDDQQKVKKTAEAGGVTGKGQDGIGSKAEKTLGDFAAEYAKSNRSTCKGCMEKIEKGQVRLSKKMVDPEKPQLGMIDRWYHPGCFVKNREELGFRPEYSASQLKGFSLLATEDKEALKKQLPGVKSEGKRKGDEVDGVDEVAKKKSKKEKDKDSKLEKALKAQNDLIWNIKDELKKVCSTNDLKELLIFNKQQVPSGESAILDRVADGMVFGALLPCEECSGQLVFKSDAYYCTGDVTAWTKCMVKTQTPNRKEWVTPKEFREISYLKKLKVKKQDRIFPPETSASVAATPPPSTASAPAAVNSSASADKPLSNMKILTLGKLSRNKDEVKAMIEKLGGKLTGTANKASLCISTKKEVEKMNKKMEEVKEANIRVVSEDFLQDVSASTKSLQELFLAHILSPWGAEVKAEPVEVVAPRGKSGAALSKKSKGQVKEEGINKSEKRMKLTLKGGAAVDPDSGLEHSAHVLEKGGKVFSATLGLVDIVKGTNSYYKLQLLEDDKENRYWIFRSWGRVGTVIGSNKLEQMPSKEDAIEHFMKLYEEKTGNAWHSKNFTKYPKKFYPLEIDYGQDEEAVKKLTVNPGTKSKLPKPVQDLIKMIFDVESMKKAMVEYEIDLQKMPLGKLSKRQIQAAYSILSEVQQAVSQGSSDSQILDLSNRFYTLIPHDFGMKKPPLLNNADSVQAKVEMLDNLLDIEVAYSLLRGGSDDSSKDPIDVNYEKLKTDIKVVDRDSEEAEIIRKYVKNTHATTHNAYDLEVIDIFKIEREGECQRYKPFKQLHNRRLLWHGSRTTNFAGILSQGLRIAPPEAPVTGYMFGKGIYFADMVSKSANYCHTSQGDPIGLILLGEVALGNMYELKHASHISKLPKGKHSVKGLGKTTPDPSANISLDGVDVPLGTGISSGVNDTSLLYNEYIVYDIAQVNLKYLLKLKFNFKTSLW
- Assay Notes: fluorescence polarization
Value Kind: pKd
Conceptually, pKd converts a concentration in mol/L into minus its log10.

Entry under review: 18-bp DNA duplex (dsDNA) DNA 1: GGGTTGCGGCCGCTTGGG DNA 2: CCCAAGCGGCCGCAACCC . Reported pKd?
7.28
